# SUBJECT OF TEST: human APJ receptor (Homo sapiens (Human), UniProt P35414)
# Sequence (P35414 whole entry): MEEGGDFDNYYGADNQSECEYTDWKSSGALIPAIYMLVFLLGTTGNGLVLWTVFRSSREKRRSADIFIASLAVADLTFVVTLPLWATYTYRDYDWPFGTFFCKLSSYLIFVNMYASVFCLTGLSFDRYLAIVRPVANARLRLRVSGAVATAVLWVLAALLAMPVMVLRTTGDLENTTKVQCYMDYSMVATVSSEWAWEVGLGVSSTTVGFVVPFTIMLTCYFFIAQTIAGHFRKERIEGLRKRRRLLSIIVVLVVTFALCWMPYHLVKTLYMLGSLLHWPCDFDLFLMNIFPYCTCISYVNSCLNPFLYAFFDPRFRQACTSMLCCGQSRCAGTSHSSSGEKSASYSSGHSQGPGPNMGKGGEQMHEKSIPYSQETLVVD
# ASSAY NAME: [35S]GTPγS binding assay on membranes from CHO cells stably expressing human APJ receptor
# Type: biochemical
# MEASUREMENT PARAMETERS: [35S]GTPγS SPA, read-out: Activity hAPJ SPA EC50 IP
Entries and their log10(EC50)
MEASURE NAME: log10(EC50) (log10 of the value in nM)

COc1ncnc(OC)c1-n1c(NS(=O)(=O)[C@@H](C)[C@H](OC)c2ncc(Cl)cn2)nnc1[C@H]1CC[C@@H]1F (single isomer, unassigned) [Example 182.0] :: 1.00
COc1cccc(OC)c1-n1c(NS(=O)(=O)[C@@H](C)[C@H](C)c2ncc(C)cn2)nnc1C1CCCC1 [Example 17.0] :: 0.04
COc1ncnc(OC)c1-n1c(NS(=O)(=O)[C@@H](C)[C@H](OC)c2ncc(Cl)cn2)nnc1[C@H]1CC[C@@H](F)CC1 (single isomer, unassigned) [Example 176.0] :: 1.23
COc1cccc(OC)c1-n1c(NS(=O)(=O)[C@@H](C)[C@@H](OC(C)C)c2ncc(C)cn2)nnc1[C@H]1C2CC1[C@@H]2O [Example 228.0] :: 2.28
COc1ncnc(OC)c1-n1c(NS(=O)(=O)[C@@H](C)[C@H](OC)c2cnc(C)cn2)nnc1C1CCC1 [Example 82.0] :: 1.70

* * *

# SUBJECT OF TEST: UniProt:P35414
# ASSAY NAME: [35S]GTPγS binding assay on membranes from CHO cells stably expressing human APJ receptor
# Assay type: biochemical
# MEASUREMENT PARAMETERS: [35S]GTPγS SPA, read-out: Activity hAPJ SPA EC50 IP
Threshold-based label: EC50 under 20 nM gives class 1, EC50 not under 20 nM gives class 0.

COc1ncnc(OC)c1-n1c(NS(=O)(=O)[C@@H](C)[C@@H](OC(C)C)c2ncc(Cl)cn2)nnc1[C@@H]1CC[C@@H]1C(F)F (single isomer, unassigned) [Example 168.0] :: class 1
COc1cccc(OC)c1-n1c(NS(=O)(=O)[C@@H](C)[C@@H](OC(C)C)c2ncc(C)cn2)nnc1[C@@H]1CCC(F)(F)C1 (mixture of isomers) :: class 0
COc1ncnc(OC)c1-n1c(NS(=O)(=O)[C@@H](C)[C@H](OC)c2ncc(Cl)cn2)nnc1[C@H]1C[C@@H](F)C1 (single isomer, unassigned) [Example 162.0] :: class 1
COc1cccc(OC)c1-n1c(NS(=O)(=O)[C@@H](C)[C@H](OC)c2ncc(Cl)cn2)nnc1[C@H]1C[C@@](C)(F)C1 (single isomer, unassigned) [Example 198.0] :: class 1
COc1ncnc(OC)c1-n1c(NS(=O)(=O)[C@@H](C)[C@H](OC)c2ncc(Cl)cn2)nnc1C1CC(Cl)(Cl)C1 :: class 1
COc1cccc(OC)c1-n1c(NS(=O)(=O)[C@@H](C)[C@@H](OC(C)C)c2ncc(C)cn2)nnc1[C@@H]1CCC(=O)C1 (single isomer, unassigned) [Example 230.0] :: class 0
COc1ncnc(OC)c1-n1c(NS(=O)(=O)[C@@H](C)[C@H](OC)c2ncc(Cl)cn2)nnc1C1CC2(COC2)C1 :: class 0
COc1cccc(OC)c1-n1c(NS(=O)(=O)[C@@H](C)[C@@H](OC(C)C)c2ncc(C)cn2)nnc1[C@@H]1CCC[C@@H]1OC (single isomer, unassigned) [Example 234.0] :: class 1
CC(C)O[C@@H](c1ncc(Cl)cn1)[C@H](C)S(=O)(=O)Nc1nnc(C2CCC2)n1C1CCOCC1 :: class 0
COc1cccc(OC)c1-n1c(NS(=O)(=O)[C@@H](C)[C@H](OC)c2cnc(C)cn2)nnc1C1CCC1 :: class 0
